Recorded values, source ChEMBL document CHEMBL5674860.

- Test system: Colon cancer organoid
- test: Optimized Dual-Glo assay to identify co-culture induced drug vulnerabilities using donated chemical probes and chemogenomics kinase set in O06 CRC organoid and F06 CAF mono and co-culture. […] Cell viability is reported both mono and co-culture models.
- Assay type: functional, Homo sapiens
- Design: dose or concentration left out as unconfirmed
- conditionLabel: Culture type Mono-Culture; Transduced with Renilla-dsRed lentivirus
The label depends only on Cell Viability: fulfilled if it is at least 70%, not fulfilled if it is smaller.

Req: Determine whether measured Cell Viability meets or exceeds 70% for COc1ncc(F)cc1CNc1ccc(Cc2c[nH]c3ncc(C)cc23)c(F)n1 [PLX-5622]
Resp: not fulfilled

Req: Is the recorded value of Cell Viability equal to or greater than 70% for this compound? CCc1cccc(CC)c1NC(=O)c1nn(C)c2c1CCc1cnc(Nc3ccc(C(=O)NC4CCN(C)CC4)cc3OC(F)(F)F)nc1-2
Resp: fulfilled

Req: Given C=CC(=O)Nc1cccc(C(=O)Nc2ccc(Nc3cc(-c4[nH]c(SC)nc4C)ccn3)cc2)c1 , state whether its Cell Viability is at least 70%.
Resp: fulfilled

Req: Check if Cell Viability >= 70% (inclusive). Item: CN(C)C/C=C/C(=O)Nc1cc2c(Nc3ccc(F)c(Cl)c3)ncnc2cc1O[C@H]1CCOC1.O=C(O)/C=C\C(=O)O.O=C(O)/C=C\C(=O)O [AFATINIB DIMALEATE]
Resp: not fulfilled

Req: Decide: Cell Viability of CN(C)C(=O)c1ccc(-c2cc(C(=O)N(C)C3CCCC3)no2)cc1O >= 70%?
Resp: fulfilled

Req: Hi team, for Cc1cc(C)cc([C@H]2c3cc(C)ccc3NC(=O)CN2C(=O)c2ccc(Br)s2)c1 , is the recorded Cell Viability at or above 70%?
Resp: fulfilled

Req: Threshold query (Cell Viability >= 70%) on N#CC1(c2ccccn2)CCN(Cc2cc(C(=O)O)c(=O)n3ccccc23)CC1 [MSD-M1PAM]
Resp: fulfilled
